# run.description: small-molecule microarray binders of probe aCHRDL2, primary screen, biochemical, biotinylated probe, 635/667 nm fluorescence (AID 1100)
# applied.conditions: higher = more signal
quantity: composite z-score
The reply should be a number, written without any unit.

CN1C(=O)[C@@]2(Cc3ccccc3)N=C(c3ccc(OCCCO)cc3)O[C@H]2c2ccccc21: 1.02

Requested field: composite z-score. Item: C=C[C@@H](C)[C@H](O)c1ccc(OCCO)cc1
0.825

What do you get for COCC1C2CC[C@H]3C(OCc4ccc(OC)cc4)OC[C@]4(C)[C@H]3C2=C(CN4C(=O)OC(C)(C)C)[C@H](C)C1COC (stereo not given in full) ?
0.482

What do you get for C[C@]1(C(=O)O)c2ccccc2C(=O)N(Cc2ccc(OC(F)(F)F)cc2)[C@H]1c1ccc(CO)cc1 ?
1.01

What do you get for COC(=O)[C@@]1(Cc2ccc(F)cc2)[C@H]2c3cc(C(=O)N4CCCC4)n(C)c3C[C@H]2CN1C(=O)c1ccccc1 ?
1.22

----------
# run.description: fission yeast growth modulation, primary screen, strain 972, OD600, 24 h, no modulator (AID 1090);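 further: basal condition with compound alone and no growth modifier present; test concentration not given here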
# applied.conditions: S. pombe 972 growth, higher = more signal, called active from +8 up or from −8 down
# cutoff -2 applies to z-score; >= gives Yes, < gives No

NCCCCCNC(=O)[C@@H]1C[C@@H]2C(=O)N3CCC[C@H]3C(=O)N2[C@@H]1c1ccc(O)cc1: Yes
O=C(CS)NCCCCCCNC(=O)[C@@H]1C[C@@H]2C(=O)NCC(=O)N2[C@@H]1c1ccc(O)cc1: Yes
CCOC(=O)C1=CCC(c2ccccc2)N(S(=O)(=O)c2ccc([N+](=O)[O-])cc2)C1 (stereo not drawn): Yes

Test whether the compound C=C(CCCC)C(=O)CC[C@H](OC(C)=O)c1ccc(OCCO)cc1 records z-score of -2 or higher.
No

What do you get for O=C1OCCC/C=C\[C@H]2OC34C=CCN(c5ccc6ccccc6c5)C(=O)[C@H]3N(CCCO)C(=O)[C@@H]4C12 (stereo partly drawn) ?
Yes

What do you get for COCCOC(=O)N1C(=O)[C@@]2(c3cc(C#CCCO)ccc31)[C@H](C(=O)N1CCCCCCC1)[C@H]1C(=O)O[C@H](c3ccccc3)[C@H](c3ccccc3)N1[C@@H]2c1ccccc1OCCO ?
No

What do you get for COCCCNC(=O)[C@@]1(Sc2ccc(C)cc2)CC(=O)N(C(C)C)[C@@H]1c1ccc(CO)cc1I ?
No

What do you get for COc1ccc([Si](C)(C)[C@@H]2[C@@H](CC(=O)N3Cc4ccccc4C[C@H]3CO)O[C@]3(C(=O)N(c4ccccc4)c4ccccc43)[C@H]2C)cc1 ?
Yes

----------
# Test system: PRMT1 (protein arginine N-methyltransferase 1)
# run.description: PRMT1 binders on small-molecule microarrays, primary screen, biochemical, small-molecule microarray, 635 nm fluorescence (AID 1088);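 further: binding of Prmt1 protein to compounds spotted on small-molecule microarray slides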
# applied.conditions: small-molecule microarray binding, higher = more signal
quantity: composite z-score
The reply should be a number, written without any unit.

Some solved cases for reference:
O=C1[C@@H]2[C@@H](CC(COc3ccccc3)=C3[C@@H](CCc4ccccc4)OB(O)C[C@@H]32)C(=O)N1Cc1ccccc1: -0.0537
C=C(/C(=C/C[C@@H](OC(C)=O)c1ccc(OCCO)cc1)c1cc(C(=O)OC)ccc1OC)C(C)C: 0.629
COCC1C2CC[C@H]3C(OCc4ccc(OC)cc4)OC[C@]4(C)[C@H]3C2=C(CN4C(=O)OC(C)(C)C)[C@H](C)C1COC (some centres undefined): 1.57

Attention now turns to another entry.
Notebook: pull reported composite z-score for PRMT1 (protein arginine N-methyltransferase 1), entry CCc1cccc(NC(=O)O[C@H]2[C@H](OC(=O)Nc3ccccc3)[C@H](OC(=O)Nc3ccccc3)[C@@H](OC)O[C@@H]2CO)c1
1.5
